Sourced from a melting point compilation (Tetko et al.)

just bin them by melting point: class 1 = under 50 °C, class 2 = from 50 °C up to 100 °C, class 3 = 100 °C and over

Example cases with answers are listed next.
- CCOc1ccc(CCO)cc1: class 1
- Fc1ccc(F)cc1: class 1
- ClCc1nc(-c2ccc(OCc3ccc(Cl)cc3)cc2)no1: class 3

Problem: State the class of the compound shown: Cc1ccc(C(C)(C)C)c(O)c1
Result: class 1

Problem: Would you mind sorting Brc1cncc(Br)c1 into the appropriate category?
Result: class 3

Problem: Classify this compound: CCCCCCCCCCCCCCCCCC(=O)OCCCC
Result: class 1

Problem: Each compound maps to one class by melting point. Which class for CCCCCCCCc1ccc(N)cc1 ?
Result: class 1

Problem: Bin this entry: CCCCCCC(=O)CC
Result: class 1

Problem: Class? Entry: C=C(CC(=O)OCC)C(=O)OCC
Result: class 2

Problem: Kindly identify the class of CSc1nnc(S)s1 .
Result: class 3

Problem: Please report the category associated with CC12CCC(C(C(O)c3ccccc3)OC1=O)C2(C)C (configuration not stated) , nothing else.
Result: class 3

Problem: For N#Cc1ccncc1Br , which melting point bin applies?
Result: class 2

Problem: Please classify: COc1cc(C)c(C=CC(C)=CC=CC(C)=CC(=O)O)c(C)c1C
Result: class 3

Problem: Note: place this compound into its band. Item: CC(C)(C)N(NC(=O)c1ccccc1)C(=O)c1ccccc1I
Result: class 3

Problem: The entry to classify is CCOC(=O)c1nn(-c2cc(-c3ccc(OC)cc3)n[nH]2)c(=N)c(-c2nc3ccccc3s2)c1C ; which class holds it?
Result: class 3

Problem: Could you place CCCCCCCCCCCCCCCC(=O)OCCOC(=O)CCCCCCCCCCCCCCC in its proper category? Many thanks.
Result: class 2

Problem: For the record O=c1[nH]c(-c2ccccc2)cc2ccncc12 , report the class its melting point corresponds to.
Result: class 3

Problem: Into which category would you place O=C=Nc1ccc(Cl)cc1 ?
Result: class 1

---

PARAMETER: melting point (°C)
Write it as a number; the unit °C goes unstated.

melting point reading for OCc1ccc(CN2CCOCC2)cc1 : 94

The molecule listed as CC12CCC3C(CCC4CC=CCC43C)C1CC=C2CCc1ccccc1 (configuration not stated) has a reported melting point of 118

---

PARAMETER: melting point (°C)
The answer is to be given in °C; state only the numeric part.

- O=[N+]([O-])c1ccccc1C=NO: 100

Kindly note the recorded melting point for O=C(Nc1ccccc1)OC1C=CC=CC(OC(=O)Nc2ccccc2)C1 (configuration not stated) , which is 181

Entry CCCCCCCCOC1OC(CO)C(O)C(O)C1O (configuration not stated) ; melting point = 105

For CCc1cccc(C)c1N the compound record lists melting point as -25

---

Listed below: melting point values for each entry.
Your answer is read as °C, so omit the unit and give the number.

* Nc1ccc(C(=O)Oc2ccccc2)c(O)c1 | 153
* O=C(Cl)/C=C/c1cccc(C(F)(F)F)c1 | 30
* O=c1cc(C(F)(F)F)n2nc(-c3ccc(Cl)cc3)cc2[nH]1 | 155

Given item CC1CC2(C)C(CCC3C4CCC(O)C4(C)CCC32)CC1=O (stereo unspecified) , the value recorded as its melting point is 151

Entry under test: CCCCOC(=O)C=CC(=O)OCCCC . Its melting point was -85

The recorded melting point for entry C/C(=N\NC(N)=O)c1ccc(C)cc1 equals 204

Per the record, COc1cc2c(cc1O)CCNC2C (stereo unspecified) has melting point of 222
